- assay-details: LogD distribution coefficient between octanol and PBS at pH7.4
- Assay type: physicochemical
- experimental-parameters: pH 7.4, read-out: LogD7.4
measured-endpoint: logD

• NC(=O)CN1CCN([C@@H](COCc2cc(C(F)(F)F)cc(C(F)(F)F)c2)c2ccccc2)CC1 = 3.26

[A] C[C@H](OC[C@H](c1ccccc1)N1CCN(CCOCC(=O)O)CC1)c1cc(C(F)(F)F)cc(C(F)(F)F)c1
[B] COc1cc(CN2CCN(C(COCc3cc(C(F)(F)F)cc(C(F)(F)F)c3)c3ccccc3)C(Cc3ccccc3)C2)cc(OC)c1OC (stereo not drawn)
# return whichever of A and B has the smaller logD State the label of the item chosen.
A
